# geometric mean listing for each entry below
- Target under test: T1, MUC1 on HCT116/MUC1 cells (UniProt P15941 24-1255, limits assumed)
- T1 construct: whole, on cells; also called MUC1 overexpressed cell line
- T1 sequence (P15941 24-1255 limits assumed): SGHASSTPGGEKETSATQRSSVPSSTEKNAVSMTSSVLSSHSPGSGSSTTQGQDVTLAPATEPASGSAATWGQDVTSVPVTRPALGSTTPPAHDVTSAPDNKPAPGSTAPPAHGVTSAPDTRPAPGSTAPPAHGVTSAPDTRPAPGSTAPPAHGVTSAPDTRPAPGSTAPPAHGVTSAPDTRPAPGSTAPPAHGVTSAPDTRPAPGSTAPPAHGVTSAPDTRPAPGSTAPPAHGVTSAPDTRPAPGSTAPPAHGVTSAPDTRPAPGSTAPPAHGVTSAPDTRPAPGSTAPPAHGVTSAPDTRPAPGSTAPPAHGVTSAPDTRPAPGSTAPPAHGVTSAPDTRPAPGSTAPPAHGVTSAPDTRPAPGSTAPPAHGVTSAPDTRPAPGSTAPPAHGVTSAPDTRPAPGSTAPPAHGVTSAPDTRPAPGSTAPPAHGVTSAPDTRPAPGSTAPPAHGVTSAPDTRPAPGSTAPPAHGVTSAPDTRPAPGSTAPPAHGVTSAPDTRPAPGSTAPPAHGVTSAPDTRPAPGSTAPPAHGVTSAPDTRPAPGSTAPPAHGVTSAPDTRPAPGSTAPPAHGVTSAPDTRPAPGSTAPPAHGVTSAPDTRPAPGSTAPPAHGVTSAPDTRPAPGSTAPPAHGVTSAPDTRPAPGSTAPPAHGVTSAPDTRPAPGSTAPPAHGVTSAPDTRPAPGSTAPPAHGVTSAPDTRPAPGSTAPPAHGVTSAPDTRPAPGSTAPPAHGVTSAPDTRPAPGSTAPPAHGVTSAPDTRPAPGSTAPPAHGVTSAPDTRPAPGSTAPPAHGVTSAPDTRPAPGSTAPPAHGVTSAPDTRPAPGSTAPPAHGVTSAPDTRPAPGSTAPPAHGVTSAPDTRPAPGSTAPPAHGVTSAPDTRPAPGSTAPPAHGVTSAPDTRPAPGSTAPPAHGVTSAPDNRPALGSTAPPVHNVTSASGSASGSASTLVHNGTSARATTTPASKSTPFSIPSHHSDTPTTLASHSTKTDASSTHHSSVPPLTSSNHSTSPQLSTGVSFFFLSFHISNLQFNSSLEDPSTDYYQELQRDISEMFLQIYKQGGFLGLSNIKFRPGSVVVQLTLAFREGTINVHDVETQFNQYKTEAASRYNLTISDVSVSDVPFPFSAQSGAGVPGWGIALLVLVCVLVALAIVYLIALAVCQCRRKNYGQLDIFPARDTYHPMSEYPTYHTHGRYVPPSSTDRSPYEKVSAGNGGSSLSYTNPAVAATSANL
- Assay notes: FACS titration, HCT116/MUC1 cells, antibody at 0.488 nM

{"Binder": "VH5 + VL3 (antibody, V domains shown, Humanized IgG expressed in HEK293; also called humanized antibody VH5+VL3) VH: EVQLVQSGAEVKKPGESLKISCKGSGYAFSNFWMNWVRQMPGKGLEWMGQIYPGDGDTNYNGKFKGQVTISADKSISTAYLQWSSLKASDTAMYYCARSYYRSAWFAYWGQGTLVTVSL VL: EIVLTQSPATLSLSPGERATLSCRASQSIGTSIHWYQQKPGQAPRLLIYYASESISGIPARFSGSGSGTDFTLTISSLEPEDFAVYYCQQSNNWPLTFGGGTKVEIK", "geometric mean": 3.27}
{"Binder": "VH3 + VL1 (antibody, V domains shown, Humanized IgG expressed in HEK293; also called humanized antibody VH3+VL1) VH: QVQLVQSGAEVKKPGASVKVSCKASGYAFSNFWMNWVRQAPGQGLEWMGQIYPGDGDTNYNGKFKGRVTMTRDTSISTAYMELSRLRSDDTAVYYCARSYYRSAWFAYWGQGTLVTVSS VL: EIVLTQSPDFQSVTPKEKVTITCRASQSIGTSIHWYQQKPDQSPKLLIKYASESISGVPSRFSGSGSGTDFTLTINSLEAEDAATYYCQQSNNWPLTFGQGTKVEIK", "geometric mean": 3.81}
{"Binder": "VH3 + VL4 (antibody, V domains shown, Humanized IgG expressed in HEK293; also called humanized antibody VH3+VL4) VH: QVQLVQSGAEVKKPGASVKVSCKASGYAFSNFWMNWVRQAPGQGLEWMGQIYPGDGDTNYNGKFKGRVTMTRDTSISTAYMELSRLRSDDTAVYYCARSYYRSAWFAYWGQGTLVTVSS VL: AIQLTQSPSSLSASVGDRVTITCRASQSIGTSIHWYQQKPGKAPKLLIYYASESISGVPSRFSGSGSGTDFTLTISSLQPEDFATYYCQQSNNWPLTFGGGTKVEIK", "geometric mean": 19.5}
{"Binder": "VH3 + VL3 (antibody, V domains shown, Humanized IgG expressed in HEK293; also called humanized antibody VH3+VL3) VH: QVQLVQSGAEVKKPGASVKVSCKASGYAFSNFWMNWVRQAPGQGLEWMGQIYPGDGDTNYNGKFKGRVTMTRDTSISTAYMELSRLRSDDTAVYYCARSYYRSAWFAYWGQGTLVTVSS VL: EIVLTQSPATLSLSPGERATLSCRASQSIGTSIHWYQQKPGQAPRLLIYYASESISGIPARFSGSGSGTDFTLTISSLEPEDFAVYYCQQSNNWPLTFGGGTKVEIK", "geometric mean": 2.65}
{"Binder": "VH5 + VL4 (antibody, V domains shown, Humanized IgG expressed in HEK293; also called humanized antibody VH5+VL4) VH: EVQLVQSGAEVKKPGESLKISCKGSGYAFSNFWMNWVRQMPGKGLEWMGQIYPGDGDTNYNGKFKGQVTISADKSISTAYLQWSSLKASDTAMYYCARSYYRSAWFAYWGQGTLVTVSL VL: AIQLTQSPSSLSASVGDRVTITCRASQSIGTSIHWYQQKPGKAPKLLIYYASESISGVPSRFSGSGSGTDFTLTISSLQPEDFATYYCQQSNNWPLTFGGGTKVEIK", "geometric mean": 3.52}
